test system: colon HCT-116; assay: COMPARE screening (NCI human cancer cell line screen), cytotoxicity GI50; format: cell-based; details: Homo sapiens, HCT-116, read-out: cytotoxicity (GI50) colon HCT-116
Listed molecules paired with reported GI50
Give the value in nM but do not write nM after it.

Some molecules with known GI50 results, for comparison:
Cl.NCCCCCCn1c2c(c3ccccc3c1=O)C(=O)c1ccccc1-2 [Compound 5ap, Hydrochloride]    912
Cl.NCCCCCCCCn1c2c(c3ccccc3c1=O)C(=O)c1ccccc1-2 [Compound 5ar, Hydrochloride]    1660
Cl.NCCCCCCCn1c2c(c3ccccc3c1=O)C(=O)c1ccccc1-2 [Compound 5aq, Hydrochloride]    1260

// below: GI50 requested for another molecule
Reported GI50 for Cl.NCCCCCCCCCCCn1c2c(c3ccccc3c1=O)C(=O)c1ccccc1-2 [Compound 5au, Hydrochloride] : what is it?
1910

====

biological target: recombinant TDP1 (Homo sapiens); assay: Gel-based assay measuring the inhibition of recombinant TDP1; format: biochemical; details: Table 7; scores correspond to IC50 ranges; read-out: TDP1 inhibition
Sequence (Q9NUW8 whole entry): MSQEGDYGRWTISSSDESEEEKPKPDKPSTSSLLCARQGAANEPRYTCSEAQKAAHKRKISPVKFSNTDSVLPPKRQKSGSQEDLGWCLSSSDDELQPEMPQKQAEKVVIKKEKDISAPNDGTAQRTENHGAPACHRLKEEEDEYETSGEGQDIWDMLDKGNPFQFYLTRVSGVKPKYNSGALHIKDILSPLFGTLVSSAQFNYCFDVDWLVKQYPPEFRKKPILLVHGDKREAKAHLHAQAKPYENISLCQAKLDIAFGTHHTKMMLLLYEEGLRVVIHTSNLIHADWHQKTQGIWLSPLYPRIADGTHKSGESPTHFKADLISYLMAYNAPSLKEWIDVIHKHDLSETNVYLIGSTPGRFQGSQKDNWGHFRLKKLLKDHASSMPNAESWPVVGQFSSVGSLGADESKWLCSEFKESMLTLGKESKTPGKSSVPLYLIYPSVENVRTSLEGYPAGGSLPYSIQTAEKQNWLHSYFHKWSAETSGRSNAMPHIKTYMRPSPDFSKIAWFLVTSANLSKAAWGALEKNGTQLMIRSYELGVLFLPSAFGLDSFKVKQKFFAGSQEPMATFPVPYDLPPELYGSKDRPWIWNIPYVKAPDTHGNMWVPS
pIC50: −log10 of the molar value.
Listed compounds paired with reported pIC50

Some compounds with known pIC50 results, for comparison:
O=C1c2cc3c(cc2-c2c1c1cc(Cl)c(Cl)cc1c(=O)n2CCCn1ccnc1)OCO3    < 3.95
O=C1c2cc3c(cc2-c2c1c1ccc(F)cc1c(=O)n2CCCn1ccnc1)OCO3    < 3.95
O=C1c2cc3c(cc2-c2c1c1ccc(F)cc1c(=O)n2CCCN1CCOCC1)OCO3    < 3.95
O=C1c2cc3c(cc2-c2c1c1ccc(Cl)cc1c(=O)n2CCCn1ccnc1)OCO3    3.95 to 4.43

What is its pIC50 for recombinant TDP1 (Homo sapiens)? Entry: "O=C1c2cc3c(cc2-c2c1c1ccc(F)cc1c(=O)n2CCCNCCO)OCO3"
4.92 to 6.00

What do you get for "O=C1c2cc3c(cc2-c2c1c1cc(F)c(F)cc1c(=O)n2CCCn1ccnc1)OCO3" ?
< 3.95

What do you get for "O=C1c2cc3c(cc2-c2c1c1ccc(Cl)cc1c(=O)n2CCCNCCO)OCO3" ?
4.92 to 6.00

====

system: ovarian OVCAR-3; assay: COMPARE screening (NCI human cancer cell line screen), cytotoxicity GI50; format: cell-based; conditions: Table 1; concentration corresponding to 50% growth inhibition; read-out: cytotoxicity (GI50) ovarian OVCAR-3
Threshold 800 nM. GI50 below it: satisfied. GI50 at it or above: not satisfied.

COc1cc2c3c(n(CCCN4CCNCC4)c(=O)c2cc1OC)-c1cc2c(cc1C3=O)OCO2.Cl.Cl [Compound 5p, Dihydrochloride]    not satisfied

Does this compound meet the criterion GI50 < 800 nM? COc1cc2c3c(n(CCCn4ccnc4)c(=O)c2cc1OC)-c1cc2c(cc1C3=O)OCO2.Cl [Compound 5l, Hydrochloride]
satisfied

What do you get for COc1cc2c3c(n(CCCN4CCCNCC4)c(=O)c2cc1OC)-c1cc2c(cc1C3=O)OCO2.Cl.Cl [Compound 5v, Dihydrochloride] ?
not satisfied

What do you get for COc1cc2c3c(n(CCCN4CCCC(O)C4)c(=O)c2cc1OC)-c1cc2c(cc1C3=O)OCO2.Cl (stereo not drawn) [Compound 5s, Hydrochloride] ?
not satisfied

What do you get for COc1cc2c3c(n(CCCNc4nccs4)c(=O)c2cc1OC)-c1cc2c(cc1C3=O)OCO2.Cl.Cl [Compound 5o, Dihydrochloride] ?
satisfied

What do you get for COc1cc2c3c(n(CCCN4CCC(N)CC4)c(=O)c2cc1OC)-c1cc2c(cc1C3=O)OCO2.Cl.Cl [Compound 5u, Dihydrochloride] ?
not satisfied
